testedTarget: Angiotensin-converting enzyme (Oryctolagus cuniculus) (UniProt P12822)
Sequence (P12822 whole entry): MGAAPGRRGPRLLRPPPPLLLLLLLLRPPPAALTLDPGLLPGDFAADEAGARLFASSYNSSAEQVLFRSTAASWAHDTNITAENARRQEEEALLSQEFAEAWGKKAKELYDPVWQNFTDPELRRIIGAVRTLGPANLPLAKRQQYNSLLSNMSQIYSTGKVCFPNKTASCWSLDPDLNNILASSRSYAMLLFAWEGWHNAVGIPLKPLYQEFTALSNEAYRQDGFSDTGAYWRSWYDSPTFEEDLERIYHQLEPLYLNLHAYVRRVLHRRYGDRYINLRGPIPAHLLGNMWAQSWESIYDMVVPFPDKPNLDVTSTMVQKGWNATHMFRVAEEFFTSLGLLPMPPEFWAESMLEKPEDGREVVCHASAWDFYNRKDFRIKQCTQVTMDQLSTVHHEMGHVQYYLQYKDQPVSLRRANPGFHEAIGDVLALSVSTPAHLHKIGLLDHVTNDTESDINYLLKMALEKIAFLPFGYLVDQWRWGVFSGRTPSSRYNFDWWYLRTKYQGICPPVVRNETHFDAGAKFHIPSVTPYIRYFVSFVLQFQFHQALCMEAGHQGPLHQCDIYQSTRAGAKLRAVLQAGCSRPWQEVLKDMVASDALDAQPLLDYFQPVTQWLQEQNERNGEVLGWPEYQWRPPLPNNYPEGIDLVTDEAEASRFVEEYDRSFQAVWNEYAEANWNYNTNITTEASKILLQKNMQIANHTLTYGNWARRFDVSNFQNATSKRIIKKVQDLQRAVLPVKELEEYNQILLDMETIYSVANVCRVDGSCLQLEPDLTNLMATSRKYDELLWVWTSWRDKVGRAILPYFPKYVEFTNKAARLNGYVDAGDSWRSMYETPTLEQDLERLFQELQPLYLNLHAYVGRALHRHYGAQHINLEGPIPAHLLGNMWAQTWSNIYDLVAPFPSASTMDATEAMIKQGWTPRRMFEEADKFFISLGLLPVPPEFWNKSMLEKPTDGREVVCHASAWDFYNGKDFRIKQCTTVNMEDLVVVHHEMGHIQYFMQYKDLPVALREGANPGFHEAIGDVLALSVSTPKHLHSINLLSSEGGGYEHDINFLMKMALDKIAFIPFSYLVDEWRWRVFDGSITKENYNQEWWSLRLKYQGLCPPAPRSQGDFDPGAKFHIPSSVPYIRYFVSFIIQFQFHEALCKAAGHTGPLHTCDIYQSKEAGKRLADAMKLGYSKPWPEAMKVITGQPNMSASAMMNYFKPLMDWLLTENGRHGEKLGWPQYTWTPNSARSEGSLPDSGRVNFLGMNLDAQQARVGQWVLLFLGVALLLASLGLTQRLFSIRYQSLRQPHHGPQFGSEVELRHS
assayRemarks: In vitro inhibition of Angiotensin I converting enzyme relative to captopril(=1)
parameterMeasured: relative potency

Example cases with answers are listed next.
{"molecule": "CC(CS)C(=O)N1CC2(C[C@H]1C(=O)O)OCC(C)(C)CO2 (stereo partly specified)", "relative potency": 1}
{"molecule": "CC(CS)C(=O)N1CC2(C[C@H]1C(=O)O)SCCCS2 (stereo partly specified)", "relative potency": 1.07}

1. CC(CS)C(=O)N1C[C@@H](OCc2ccccc2)C[C@H]1C(=O)O (stereo partly specified)
2. C[C@H](CS)C(=O)N1CC2(C[C@H]1C(=O)O)SCCS2
Query string: relative potency comparison. Which is larger, 1 or 2 ? Please respond with the label that marks your chosen entry.
Result string: 2
(2: 4, 1: 0.56)

I. CC(CS)C(=O)N1C[C@@H](N=[N+]=[N-])C[C@H]1C(=O)O (stereo partly specified)
II. CC(CS)C(=O)N1CC2(C[C@H]1C(=O)O)SCCS2 (stereo partly specified)
Query string: relative potency comparison. Which is larger, I or II ? Please respond with the label that marks your chosen entry.
Result string: II
(II: 1.26, I: 0.54)

----------
testedTarget: Angiotensin-converting enzyme (Rattus norvegicus)
assayRemarks: Compound was tested for bradykinin potentiation at 0.1 ug/kg dose
Type: functional
In this section, each of the molecules is paired with its reported Delta blood pressure.
Please state the figure in mmHg; there is no need to write the unit.

Example cases with answers are listed next.
{"molecule": "CC(CS)C(=O)N1C[C@@H](SCc2ccccc2)C[C@H]1C(=O)O (some centres undefined)", "unitAbbreviation": "mmHg", "resultNumber": 5}
{"molecule": "CO[C@H]1C[C@@H](C(=O)O)N(C(=O)C(C)CS)C1 (some centres undefined)", "unitAbbreviation": "mmHg", "resultNumber": 60}
{"molecule": "CC(CS)C(=O)N1C[C@@H](Sc2ccccc2)C[C@H]1C(=O)O (some centres undefined)", "unitAbbreviation": "mmHg", "resultNumber": 22}
{"molecule": "CC(CS)C(=O)N1CC2(C[C@H]1C(=O)O)SCCS2 (some centres undefined)", "unitAbbreviation": "mmHg", "resultNumber": 34}
{"molecule": "CC(CS)C(=O)N1CC2(C[C@H]1C(=O)O)OCC(C)(C)CO2 (some centres undefined)", "unitAbbreviation": "mmHg", "resultNumber": 46}

So for CC(CS)C(=O)N1C[C@@H](OCc2ccccc2)C[C@H]1C(=O)O (some centres undefined) , the logged Delta blood pressure turned out to be 40

So for "O=C(O)[C@@H]1CC2(CN1C(=O)CCS)SCCS2" , the logged Delta blood pressure turned out to be 38

So for COC1=C[C@@H](C(=O)O)N(C(=O)C(C)CS)C1 (some centres undefined) , the logged Delta blood pressure turned out to be 52

So for CC(CS)C(=O)N1C[C@H](OCCOc2ccccc2)C[C@H]1C(=O)O (some centres undefined) , the logged Delta blood pressure turned out to be 9

So for CC(CS)C(=O)N1C[C@H](O)C[C@H]1C(=O)O (some centres undefined) , the logged Delta blood pressure turned out to be 48

So for CC(CS)C(=O)N1C[C@@H](O)C[C@H]1C(=O)O (some centres undefined) , the logged Delta blood pressure turned out to be 40

So for CC(CS)C(=O)N1C[C@H](F)C[C@H]1C(=O)O (some centres undefined) , the logged Delta blood pressure turned out to be 53

So for "O=C(O)[C@@H]1CC2(CN1C(=O)CCS)SCCCS2" , the logged Delta blood pressure turned out to be 19

So for CC(CS)C(=O)N1C[C@@H](C#N)C[C@H]1C(=O)O (some centres undefined) , the logged Delta blood pressure turned out to be 47

So for CCOCCO[C@@H]1C[C@@H](C(=O)O)N(C(=O)C(C)CS)C1 (some centres undefined) , the logged Delta blood pressure turned out to be 45

So for CC(CS)C(=O)N1C[C@H](OCc2ccccc2)C[C@H]1C(=O)O (some centres undefined) , the logged Delta blood pressure turned out to be 47

So for CC(CS)C(=O)N1C[C@@H](SC2CCCCC2)C[C@H]1C(=O)O (some centres undefined) , the logged Delta blood pressure turned out to be 6

So for CC(CS)C(=O)N1C[C@H](Oc2ccc(Cl)cc2)C[C@H]1C(=O)O (some centres undefined) , the logged Delta blood pressure turned out to be 23

So for CC(CS)C(=O)N1CC2(C[C@H]1C(=O)O)OCCO2 (some centres undefined) , the logged Delta blood pressure turned out to be 43

----------
testedTarget: Angiotensin-converting enzyme (Rattus norvegicus) (UniProt P47820)
Sequence (whole entry): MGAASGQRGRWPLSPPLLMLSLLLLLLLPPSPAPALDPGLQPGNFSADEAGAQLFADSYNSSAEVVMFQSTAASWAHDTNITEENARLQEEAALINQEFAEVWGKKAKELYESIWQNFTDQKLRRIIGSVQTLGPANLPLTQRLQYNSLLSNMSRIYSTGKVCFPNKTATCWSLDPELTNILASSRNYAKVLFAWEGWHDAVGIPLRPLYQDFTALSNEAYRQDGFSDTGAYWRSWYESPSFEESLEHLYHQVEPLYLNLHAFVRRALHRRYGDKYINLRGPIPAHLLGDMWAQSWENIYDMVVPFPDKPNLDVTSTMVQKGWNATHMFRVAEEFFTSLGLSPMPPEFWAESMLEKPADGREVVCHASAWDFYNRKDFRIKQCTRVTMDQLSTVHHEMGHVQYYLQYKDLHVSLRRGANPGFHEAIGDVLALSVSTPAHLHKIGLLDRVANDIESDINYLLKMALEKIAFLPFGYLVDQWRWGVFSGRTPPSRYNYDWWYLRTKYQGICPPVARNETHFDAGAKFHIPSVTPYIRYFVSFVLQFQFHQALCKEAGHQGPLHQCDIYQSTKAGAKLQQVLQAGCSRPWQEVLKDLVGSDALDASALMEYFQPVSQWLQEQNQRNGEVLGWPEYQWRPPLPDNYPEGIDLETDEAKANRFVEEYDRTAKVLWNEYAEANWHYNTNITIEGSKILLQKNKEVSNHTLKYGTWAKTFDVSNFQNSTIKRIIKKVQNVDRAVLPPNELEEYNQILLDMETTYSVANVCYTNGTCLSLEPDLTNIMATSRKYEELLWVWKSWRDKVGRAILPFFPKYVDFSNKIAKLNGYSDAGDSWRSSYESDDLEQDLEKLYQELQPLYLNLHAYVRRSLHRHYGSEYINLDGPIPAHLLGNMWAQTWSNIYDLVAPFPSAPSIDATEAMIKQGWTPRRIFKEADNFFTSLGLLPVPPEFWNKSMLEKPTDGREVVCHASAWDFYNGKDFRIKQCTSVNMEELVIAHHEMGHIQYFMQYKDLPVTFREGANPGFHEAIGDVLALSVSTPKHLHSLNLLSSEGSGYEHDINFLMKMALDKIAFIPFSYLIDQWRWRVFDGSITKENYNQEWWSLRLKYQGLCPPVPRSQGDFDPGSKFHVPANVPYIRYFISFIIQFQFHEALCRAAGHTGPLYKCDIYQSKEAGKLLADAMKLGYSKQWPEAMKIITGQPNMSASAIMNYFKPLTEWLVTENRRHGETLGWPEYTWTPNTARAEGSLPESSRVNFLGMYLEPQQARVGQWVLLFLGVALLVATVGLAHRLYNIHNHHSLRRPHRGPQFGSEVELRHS
assayRemarks: In vivo inhibition of Angiotensin I converting enzyme in anaesthetized rats
Assay type: organism-based
parameterMeasured: ID50 (mg/kg)

Example cases with answers are listed next.
{"molecule": "CC(CS)C(=O)N1C[C@@H](O)C[C@H]1C(=O)O (stereo partly drawn)", "parameterMeasured": "ID50", "resultNumber": 0.367}
{"molecule": "CO[C@@H]1C[C@@H](C(=O)O)N(C(=O)C(C)CS)C1 (stereo partly drawn)", "parameterMeasured": "ID50", "resultNumber": 1.21}
{"molecule": "CO[C@H]1C[C@@H](C(=O)O)N(C(=O)C(C)CS)C1 (stereo partly drawn)", "parameterMeasured": "ID50", "resultNumber": 0.073}
{"molecule": "CCOCCO[C@@H]1C[C@@H](C(=O)O)N(C(=O)C(C)CS)C1 (stereo partly drawn)", "parameterMeasured": "ID50", "resultNumber": 0.372}
{"molecule": "CC(CS)C(=O)N1C[C@@H](Sc2ccccc2)C[C@H]1C(=O)O (stereo partly drawn)", "parameterMeasured": "ID50", "resultNumber": 0.544}

a. CS[C@H]1C[C@@H](C(=O)O)N(C(=O)C(C)CS)C1 (stereo partly drawn)
b. CC(CS)C(=O)N1C[C@H](O)C[C@H]1C(=O)O (stereo partly drawn)
Query string: Problem: Given the entries a and b , determine which has the lower reported ID50. Please respond with the label that marks your chosen entry.
Result string: b
(b: 0.253 mg/kg, a: 0.398 mg/kg)

----------
testedTarget: Angiotensin-converting enzyme (Rattus norvegicus)
assayRemarks: In vivo inhibition of Angiotensin I converting enzyme in anaesthetized rats
Type: organism-based
parameterMeasured: ID50 (mg/kg)

Example cases with answers are listed next.
{"molecule": "O=C(O)[C@@H]1CC2(CN1C(=O)CCS)SCCCS2", "ID50 / mg/kg": 0.01}
{"molecule": "CC(CS)C(=O)N1CC2(C[C@H]1C(=O)O)OCC(C)(C)CO2 (stereo partly specified)", "ID50 / mg/kg": 0.359}
{"molecule": "CC(CS)C(=O)N1CC2(C[C@H]1C(=O)O)SCCCS2 (stereo partly specified)", "ID50 / mg/kg": 0.048}

P. CC(CS)C(=O)N1CC2(C[C@H]1C(=O)O)OCCO2 (stereo partly specified)
Q. CC(CS)C(=O)N1CC2(C[C@H]1C(=O)O)SCCS2 (stereo partly specified)
Query string: Problem: Given the entries P and Q , determine which has the lower reported ID50. Please respond with the label that marks your chosen entry.
Result string: Q
(Q: 0.026 mg/kg, P: 0.065 mg/kg)
